Experiment: Inhibition of HIV1 Protease M1 variant by FRET based assay
Design: species or system Human immunodeficiency virus 1
Exam item: assign yes (1) to entries whose Ki is below 50 nM and no (0) to entries at or above 50 nM. Note that a value of exactly 50 nM receives no (0).

* CC(=O)N[C@H](C(=O)N[C@@H](Cc1ccccc1)C[C@H](O)[C@H](Cc1ccccc1)NC(=O)[C@@H]1CN(c2cccc(C(C)=O)c2)C(=O)O1)C(C)C | no (0)
* Cc1cccc(C)c1OCC(=O)N[C@@H](Cc1ccccc1)[C@@H](O)C[C@H](Cc1ccccc1)NC(=O)[C@H](C(C)C)N1CCCNC1=O [LOPINAVIR] | yes (1)

QUERY: Ki under 50 nM? Item: COC(=O)N[C@H](C(=O)N[C@@H](Cc1ccccc1)C[C@H](O)[C@H](Cc1ccccc1)NC(=O)[C@@H]1CN(c2ccccc2)C(=O)O1)C(C)(C)C
RESULT: no (0)

QUERY: Let us now turn to CC(=O)N[C@H](C(=O)N[C@@H](Cc1ccccc1)C[C@H](O)[C@H](Cc1ccccc1)NC(=O)[C@@H]1CN(c2ccc(F)c(F)c2)C(=O)O1)C(C)C
RESULT: no (0)

QUERY: Let us now turn to CC(C)[C@@H](C(=O)N[C@@H](Cc1ccccc1)C[C@H](O)[C@H](Cc1ccccc1)NC(=O)[C@@H]1CN(c2ccccc2)C(=O)O1)N1CCCNC1=O
RESULT: no (0)
